tested on: p75^NTR receptors (PC12 cells); assay: Basic screening assay: binding of 125I-NGF to PC12 cells; conditions: Table 1; test compound 50 μM; 0.5 nM 125I-NGF; PC12 cells; 2 h at 4° C.; specific binding as percent of control

[
  {
    "compound": "CCOC(=O)c1ccc(-c2ccc(/C=C3/NC(=O)N(c4ccccc4)C3=O)o2)cc1 [Compound 54]",
    "NGF Activity % Maximal Binding": "* (50 < *)"
  },
  {
    "compound": "CC1=NN(c2ccc(F)cc2)C(=O)/C1=C\\c1ccc(-c2ccc(C(=O)O)cc2)o1 [Compound 49]",
    "NGF Activity % Maximal Binding": "* (50 < *)"
  },
  {
    "compound": "COCCN1C(=O)C(=Cc2ccc(-c3cccc([N+](=O)[O-])c3)o2)SC1=S [Compound 34]",
    "NGF Activity % Maximal Binding": "* (50 < *)"
  },
  {
    "compound": "Cc1ccc(N2NC(=O)C(=Cc3ccc(-c4ccc([N+](=O)[O-])cc4Cl)o3)C2=O)cc1C [Compound 23]",
    "NGF Activity % Maximal Binding": "* (50 < *)"
  },
  {
    "compound": "CCOC(=O)CN1C(=O)S/C(=C/c2ccc(-c3cc(C(=O)O)ccc3C)o2)C1=O [Compound 21]",
    "NGF Activity % Maximal Binding": "* (50 < *)"
  },
  {
    "compound": "CCCSC1=NC(=Cc2ccc(-c3ccc([N+](=O)[O-])cc3Cl)o2)C(=O)S1 [Compound 62]",
    "NGF Activity % Maximal Binding": "* (50 < *)"
  },
  {
    "compound": "CCOC(=O)c1ccc(-c2ccc(/C=C3/C(=O)NN(c4cccc(C)c4)C3=O)o2)cc1 [Compound 63]",
    "NGF Activity % Maximal Binding": "* (50 < *)"
  },
  {
    "compound": "Cc1cc(-c2ccc(C=C3C(=O)NC(=S)NC3=O)o2)c(C)c([N+](=O)[O-])c1 [Compound 3]",
    "NGF Activity % Maximal Binding": "* (50 < *)"
  }
]
